// provenance: ChEMBL document CHEMBL5252639

# Tested on: BT-474
# assay_remarks: Cytotoxicity against human BT-474 cells assessed as inhibition of cell growth measured for 24 hrs by MTT assay
# Type: functional, cell-based
# test_context: BT-474, 24 h
test_readout: pIC50
In plain terms, pIC50 is the concentration in mol/L turned into minus its base-10 logarithm.

- smiles_input: "COc1ccc(/C=C(/C(=O)OCc2cn(CC(=O)c3ccccc3)nn2)c2ccc(OC)c(OC)c2)cc1OC"
  tested_on: "BT-474"
  pIC50: 4.79

Query: Tell me reported pIC50 for COc1ccc(/C=C(/C(=O)OCc2cn(Cc3ccccc3F)nn2)c2ccc(OC)c(OC)c2)cc1OC , tested with BT-474.
Reply: 4.58

Query: Query pIC50 on BT-474 for COc1ccc(C(=O)Cn2cc(COC(=O)/C(=C/c3ccc(OC)c(OC)c3)c3ccc(OC)c(OC)c3)nn2)cc1
Reply: 4.32

Query: Request body: readout pIC50, system BT-474, query COc1ccc(/C=C(/C(=O)OCc2cn(Cc3cc(F)ccc3F)nn2)c2ccc(OC)c(OC)c2)cc1OC . Return the value.
Reply: 4.89
